- EXPERIMENT_NOTES: Highest frequency of moderate liver toxicity observed during clinical trials, expressed as a percentage. [column '% BIOL' in source]
- DETAILS: human
// values below are reported Hepatotoxicity (moderate)
Value expressed in %; do not type the unit.

// below: answered compounds
>  <COMPOUND>
Cc1nccn1CC1CCc2c(c3ccccc3n2C)C1=O (stereo not drawn)

>  <VALUE_UNITS>
%

>  <Hepatotoxicity (moderate)>
33

$$$$
>  <COMPOUND>
CCCN1C[C@H](CSC)C[C@@H]2c3cccc4[nH]cc(c34)C[C@H]21 [PERGOLIDE]

>  <VALUE_UNITS>
%

>  <Hepatotoxicity (moderate)>
1.9

$$$$
>  <COMPOUND>
COc1cc(N)c(Cl)cc1C(=O)NC1CCN(CCCOc2ccc(F)cc2)CC1OC (stereo not drawn) [CISAPRIDE]

>  <VALUE_UNITS>
%

>  <Hepatotoxicity (moderate)>
0

$$$$

Input: Form field: reported Hepatotoxicity (moderate) of Cc1cccc(C)c1NC(=O)C(C)N (stereo not drawn) [TOCAINIDE]
Output: 1.7

Input: Next entry: C=CCC(C(=O)NC(N)=O)C(C)C (stereo not drawn)
Output: 0

Input: Now consider C[C@@H](O)[C@H]1C(=O)N2C(C(=O)[O-])=C(SC3Cn4cnc[n+]4C3)[C@H](C)[C@H]12 (stereo partly drawn) and answer again.
Output: 40

Input: Now consider CC(C)=CCN1CC[C@]2(C)c3cc(O)ccc3C[C@H]1[C@H]2C [(+)-PENTAZOCINE] .
Output: 0

Input: COc1cccc2c1C(=O)c1c(O)c3c(c(O)c1C2=O)C[C@@](O)(C(C)=O)C[C@@H]3O[C@H]1C[C@H](N)[C@H](O)[C@H](C)O1 , same question.
Output: 68

###

Quick reference: Hepatotoxicity (moderate) of the listed items.
- EXPERIMENT_NOTES: Highest frequency of moderate liver toxicity observed during clinical trials, expressed as a percentage. [column '% BIOL' in source]
- DETAILS: human

The cases that follow already have their Hepatotoxicity (moderate) on record.
>  <SUBSTANCE>
COLISTIN

>  <Hepatotoxicity (moderate)>
0%

$$$$
>  <SUBSTANCE>
MUROMONAB-CD3

>  <Hepatotoxicity (moderate)>
0%

$$$$
>  <SUBSTANCE>
ANTIMONY (III) ION

>  <Hepatotoxicity (moderate)>
0%

$$$$
>  <SUBSTANCE>
GALLIUM

>  <Hepatotoxicity (moderate)>
28.6%

$$$$
>  <SUBSTANCE>
BCG VACCINE

>  <Hepatotoxicity (moderate)>
10%

$$$$

Input: Consider the substance shown here: PENTOSAN POLYSULFATE SODIUM What is its recorded Hepatotoxicity (moderate)?
Output: 75%

Input: Next: CHOLESTYRAMINE
Output: 30%

Input: // next record MEGLUMINE ANTIMONATE
Output: 6%

Input: Can you handle SODIUM NITROPRUSSIDE next?
Output: 41%

Input: Another: FILGRASTIM
Output: 75%

Input: Note, next up: PALIVIZUMAB
Output: 3.6%

Input: Please give the result for INTERFERON ALFA too.
Output: 58%

Input: Also IVERMECTIN , if possible.
Output: 23.3%
